From: ChEMBL document CHEMBL1130069

Record form. Attribute: concentration at 1 h. Fill in for each entry.
- protocolDescription: Measured rat plasma levels (uM) one hour post PO dose
- Format: ADME, organism-based
- assayContext: read-out: Plasma level

CC(C1CC1c1ccoc1)N(O)C(N)=O (stereo unspecified) : 42 µM
NC(=O)N(O)CC#Cc1cccc(Oc2ccccc2)c1 : 11.5 µM
CC(C#Cc1ccco1)N(O)C(N)=O (stereo unspecified) : 86 µM
CC(C#Cc1ccoc1)N(O)C(N)=O (stereo unspecified) : 107 µM
CC(C#Cc1cccc(Oc2ccc(F)cc2)c1)N(O)C(N)=O (stereo unspecified) : 12.7 µM

Next up:
Q. Sample NC(=O)N(O)CC1CC1c1ccoc1 (stereo unspecified) — what was its concentration at 1 h?
A. 108 µM
